- experimentalTarget: Protein deacetylase HDAC6 (Homo sapiens) (UniProt Q9UBN7)
- Sequence (Q9UBN7 whole entry): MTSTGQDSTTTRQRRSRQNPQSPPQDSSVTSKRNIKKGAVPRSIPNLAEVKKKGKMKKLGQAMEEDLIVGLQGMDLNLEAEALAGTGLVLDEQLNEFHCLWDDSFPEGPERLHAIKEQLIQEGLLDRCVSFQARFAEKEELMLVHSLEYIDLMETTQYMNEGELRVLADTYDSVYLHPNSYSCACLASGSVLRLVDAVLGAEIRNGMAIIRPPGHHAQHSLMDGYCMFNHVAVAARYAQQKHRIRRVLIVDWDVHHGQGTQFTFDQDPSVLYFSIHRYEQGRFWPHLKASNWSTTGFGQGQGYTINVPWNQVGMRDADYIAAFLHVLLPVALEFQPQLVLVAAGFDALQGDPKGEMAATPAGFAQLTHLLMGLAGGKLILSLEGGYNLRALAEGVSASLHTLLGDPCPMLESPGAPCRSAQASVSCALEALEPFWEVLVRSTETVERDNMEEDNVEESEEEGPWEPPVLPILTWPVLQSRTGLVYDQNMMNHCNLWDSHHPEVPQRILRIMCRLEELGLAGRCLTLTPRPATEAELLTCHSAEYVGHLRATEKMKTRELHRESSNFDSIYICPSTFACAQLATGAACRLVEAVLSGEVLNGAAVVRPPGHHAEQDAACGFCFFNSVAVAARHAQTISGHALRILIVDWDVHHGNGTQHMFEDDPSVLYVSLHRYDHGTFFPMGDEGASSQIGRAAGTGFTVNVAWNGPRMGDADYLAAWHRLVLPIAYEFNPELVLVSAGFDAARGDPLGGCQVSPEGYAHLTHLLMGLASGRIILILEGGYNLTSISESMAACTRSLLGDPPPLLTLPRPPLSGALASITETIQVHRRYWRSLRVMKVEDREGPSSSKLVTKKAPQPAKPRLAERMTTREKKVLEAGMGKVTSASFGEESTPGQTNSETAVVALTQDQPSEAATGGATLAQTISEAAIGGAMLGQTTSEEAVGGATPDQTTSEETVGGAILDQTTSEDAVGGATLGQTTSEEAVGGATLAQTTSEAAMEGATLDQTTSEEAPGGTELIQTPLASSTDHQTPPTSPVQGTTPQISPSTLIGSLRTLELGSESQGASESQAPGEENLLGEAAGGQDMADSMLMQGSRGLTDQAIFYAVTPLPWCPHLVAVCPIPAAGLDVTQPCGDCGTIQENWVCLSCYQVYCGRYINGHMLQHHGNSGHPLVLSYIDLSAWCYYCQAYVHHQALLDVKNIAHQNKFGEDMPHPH
- conditionInfo: at 10 µM
Out of some 5,600 compounds screened, about 390 (7%) showed an effect of 50% or more. The sample as a whole holds a higher share of strong results than the screen did.
The compounds listed here are annotated with their inhibition.

                                smilesentry                        experimentaltarget  experimentalvalue
0  CN(C)c1ccc(C(=C2C=CC(=[N+](C)C)C=C2)c2ccc(N(C)C)cc2)cc1  Protein deacetylase HDAC6 (Homo sapiens) (UniProt Q9UBN7)              79.1%
1  N[C@@]1(C(=O)O)CS(=O)(=O)[C@H]2[C@H](C(=O)O)[C@H]21  Protein deacetylase HDAC6 (Homo sapiens) (UniProt Q9UBN7)              9.11%
2  C=C1/C(=C\C=C2/CCC[C@]3(C)[C@@H]([C@H](C)/C=C/[C@@H](O)C4CC4)CC[C@@H]23)C[C@@H](O)C[C@@H]1O  Protein deacetylase HDAC6 (Homo sapiens) (UniProt Q9UBN7)              1.78%
3          COc1c2occc2c(OC)c2c(=O)cc(C)oc12  Protein deacetylase HDAC6 (Homo sapiens) (UniProt Q9UBN7)             -5.99%

Now look at this one.
Check Protein deacetylase HDAC6 (Homo sapiens) (UniProt Q9UBN7) data and give inhibition for Cc1ccc([N+](=O)[O-])cc1S(=O)(=O)N(C)C .
6.18%
